target: AKT (Homo sapiens, UniProt Q9Y243); construct: Kinases are expressed as either kinase domains or full length constructs; made in house; assay: Kinase inhibition assay (33P transfer), AKT; format: biochemical; details: Table 2, kinase inhibition class; read-out: AKT3-1
Sequence (Q9Y243 whole entry, the tested form may be a part): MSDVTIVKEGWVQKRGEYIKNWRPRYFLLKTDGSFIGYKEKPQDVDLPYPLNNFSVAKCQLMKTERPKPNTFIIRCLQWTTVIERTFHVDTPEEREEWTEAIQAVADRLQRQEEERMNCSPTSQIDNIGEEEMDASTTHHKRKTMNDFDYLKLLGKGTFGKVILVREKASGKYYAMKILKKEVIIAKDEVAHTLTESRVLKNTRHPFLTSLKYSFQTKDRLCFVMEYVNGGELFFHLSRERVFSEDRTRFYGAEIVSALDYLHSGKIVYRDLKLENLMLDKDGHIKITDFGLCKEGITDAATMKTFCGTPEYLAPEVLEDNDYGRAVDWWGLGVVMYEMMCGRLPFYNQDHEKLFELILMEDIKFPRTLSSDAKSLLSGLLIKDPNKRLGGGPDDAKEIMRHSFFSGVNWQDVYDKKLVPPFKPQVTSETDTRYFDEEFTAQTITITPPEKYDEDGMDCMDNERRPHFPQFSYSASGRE
pIC50: −log10 of the molar value.
quantity: pIC50

Sample answers from the record:
COc1cc(Nc2ncnc(NN3CCOCC3)n2)cc(OC)c1OC [Compound 103] | 5.18 to 5.96
COc1cc(Nc2ncnc(Nc3ccc(NC(C)=O)c(C(F)(F)F)c3)n2)cc(OC)c1OC [Compound 617] | < 5.03
COCCOc1ccc(Nc2ncnc(Nc3ccc(C)c(O)c3)n2)cc1OCCOC [Compound 125] | < 4.99
COc1cccc(Nc2ncnc(-n3c(N)nc4ccccc43)n2)c1 [Compound 654] | < 4.87
COc1cc(Nc2ncnc(NN3CCCC3)n2)cc(OC)c1OC [Compound 1002] | < 4.89
COc1ccc(Nc2ncnc(-n3c(N)nc4ccccc43)n2)cc1 [Compound 656] | < 4.87

In plain terms, CCOC(=O)Cc1cn(-c2ncnc(Nc3cc(OC)c(OC)c(OC)c3)n2)c2ccccc12 [Compound 411] has a documented pIC50 of < 5.01

In plain terms, Nc1nc2ccccc2n1-c1ncnc(Nc2ccccc2)n1 [Compound 651] has a documented pIC50 of < 4.83

In plain terms, CC(=O)Nc1ccc(Nc2ncnc(N3CCCc4cc(C)ccc43)n2)cc1 [Compound 760] has a documented pIC50 of < 4.92

In plain terms, COc1cc(Nc2ncnc(-n3c(NCc4ccc(F)cc4Cl)nc4ccccc43)n2)cc(OC)c1OC [Compound 951] has a documented pIC50 of < 5.08

In plain terms, CC(=O)N1CCc2cc(Nc3ncnc(N4CCCc5cc(C)ccc54)n3)ccc21 [Compound 764] has a documented pIC50 of < 4.95

In plain terms, COc1cc(Nc2ncnc(N3CCC(O)CC3)n2)cc(OC)c1OC [Compound 208] has a documented pIC50 of < 4.90

In plain terms, CC(C)(C)c1cc(Nc2ncnc(Nc3cccc(CC(=O)O)c3)n2)[nH]n1 [Compound 979] has a documented pIC50 of < 4.91

In plain terms, COc1ccc(Nc2ccc(Nc3ncnc(Nc4cc(OC)c(OC)c(OC)c4)n3)cc2)cc1 [Compound 922] has a documented pIC50 of 5.30 to 6.07

In plain terms, COc1cc(Nc2ncnc(Nc3cccc(NC(=O)O[C@@H]4CCOC4)c3)n2)cc(OC)c1OC [Compound 694] has a documented pIC50 of < 5.03

In plain terms, COCCCNc1ncnc(N2CCCc3cc(C)ccc32)n1 [Compound 762] has a documented pIC50 of < 4.84

In plain terms, COc1ccc(Nc2ncnc(N(CC(=O)OC(C)(C)C)c3ccc(Cl)cc3)n2)cc1OC [Compound 973] has a documented pIC50 of < 5.02

In plain terms, COc1cc(Nc2ncnc(Nc3ccncc3)n2)cc(OC)c1OC [Compound 39] has a documented pIC50 of < 4.90

---

target: Kdr (Homo sapiens, UniProt P35968); construct: Kinases are expressed as either kinase domains or full length constructs; made in house; assay: Kinase inhibition assay (33P transfer), Kdr; format: biochemical; conditions: Table 3; read-out: KDR-1
Sequence (P35968 20-1356, species assumed): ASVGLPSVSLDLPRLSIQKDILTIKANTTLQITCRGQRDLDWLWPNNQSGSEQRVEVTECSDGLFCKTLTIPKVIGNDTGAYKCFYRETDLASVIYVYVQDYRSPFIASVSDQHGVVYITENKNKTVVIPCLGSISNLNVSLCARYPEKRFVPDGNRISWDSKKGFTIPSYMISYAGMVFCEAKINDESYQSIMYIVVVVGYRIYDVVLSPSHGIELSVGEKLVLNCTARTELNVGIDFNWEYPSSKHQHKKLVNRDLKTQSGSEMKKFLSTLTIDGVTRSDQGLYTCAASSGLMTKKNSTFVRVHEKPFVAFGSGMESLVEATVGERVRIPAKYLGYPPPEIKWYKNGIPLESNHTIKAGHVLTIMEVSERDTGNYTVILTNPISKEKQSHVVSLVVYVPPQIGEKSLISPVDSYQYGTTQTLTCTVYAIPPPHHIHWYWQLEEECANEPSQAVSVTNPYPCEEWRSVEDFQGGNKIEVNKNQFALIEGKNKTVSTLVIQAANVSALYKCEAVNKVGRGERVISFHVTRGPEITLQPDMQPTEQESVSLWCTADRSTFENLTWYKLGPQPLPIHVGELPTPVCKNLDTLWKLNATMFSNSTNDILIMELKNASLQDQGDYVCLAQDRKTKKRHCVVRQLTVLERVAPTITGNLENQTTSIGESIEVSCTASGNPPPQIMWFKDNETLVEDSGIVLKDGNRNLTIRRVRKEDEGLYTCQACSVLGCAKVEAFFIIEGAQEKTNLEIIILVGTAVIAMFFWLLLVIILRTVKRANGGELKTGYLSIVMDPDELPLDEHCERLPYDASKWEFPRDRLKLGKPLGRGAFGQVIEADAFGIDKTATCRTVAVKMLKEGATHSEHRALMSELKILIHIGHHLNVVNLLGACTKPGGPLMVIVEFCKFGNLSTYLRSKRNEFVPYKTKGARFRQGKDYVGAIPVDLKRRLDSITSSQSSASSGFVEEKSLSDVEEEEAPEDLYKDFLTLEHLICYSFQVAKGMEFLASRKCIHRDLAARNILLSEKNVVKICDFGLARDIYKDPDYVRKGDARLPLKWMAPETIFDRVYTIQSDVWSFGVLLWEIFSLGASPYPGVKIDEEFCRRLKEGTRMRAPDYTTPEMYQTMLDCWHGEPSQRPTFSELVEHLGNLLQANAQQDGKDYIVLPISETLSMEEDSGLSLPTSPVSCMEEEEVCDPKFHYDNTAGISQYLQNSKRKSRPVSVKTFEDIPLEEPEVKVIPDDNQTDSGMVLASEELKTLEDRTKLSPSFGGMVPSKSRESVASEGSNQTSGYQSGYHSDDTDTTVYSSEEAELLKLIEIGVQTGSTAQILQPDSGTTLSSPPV
quantity: IC50

Sample answers from the record:
Nc1ncnc(Nc2ccc(C3CCCCC3)cc2)n1 | > 16.7 µM
CNc1nc2ccccc2n1-c1ncnc(Nc2cc(OC)c(OC)c(OC)c2)n1 | < 0.982 µM
COc1cc(Nc2ncnc(Nc3ccc(O)cc3C)n2)cc(OC)c1OC | 1.04 to 6.26 µM
COc1cc(Nc2ncnc(Nc3ccc4ccccc4c3)n2)cc(OC)c1OC | 0.991 to 5.95 µM
COc1cc(Nc2ncnc(-n3c(NCC(C)C)nc4ccccc43)n2)cc(OC)c1OC | < 0.89 µM

In plain terms, COc1cc(Nc2ncnc(Nc3cccc(O)c3)n2)cc(OC)c1OC has a documented IC50 of < 1.08 µM

In plain terms, COc1cc(Nc2ncnc(-n3cc(CCO)c4ccccc43)n2)cc(OC)c1OC has a documented IC50 of < 0.949 µM

In plain terms, COc1cc(Nc2ncnc(-c3cccs3)n2)cc(OC)c1OC has a documented IC50 of 6.97 to 10.2 µM

---

Listed molecules paired with reported IC50
biological target: AKT (Homo sapiens); construct: Kinases are expressed as either kinase domains or full length constructs; made in house; assay: Kinase inhibition assay (33P transfer), AKT; type: biochemical; conditions: Table 2, kinase inhibition class; read-out: AKT3-1

COc1cc(OC)nc(Nc2ncnc(-n3c(=O)[nH]c4ccccc43)n2)n1 [Compound 491] | > 12.3 µM
COc1ccc([C@H](C)Nc2nc3ccccc3n2-c2ncnc(Nc3cc(OC)c(OC)c(OC)c3)n2)cc1 [Compound 1046] | > 8.53 µM
O=c1[nH]c2ccccc2n1-c1ncnc(Nc2ccc(OC(F)(F)F)cc2)n1 [Compound 462] | > 11.6 µM

In plain terms, COc1cc(Nc2ncnc(N3CCCCC3)n2)cc(OC)c1OC [Compound 207] has a documented IC50 of > 13 µM

---

Listed compounds paired with reported IC50
Target: Kdr (Homo sapiens, UniProt P35968)
Construct: Kinases are expressed as either kinase domains or full length constructs; made in house
Experiment: Kinase inhibition assay (33P transfer), Kdr
Type: biochemical
Conditions: Table 3, class symbols; read-out: KDR-1
From the text: The inhibitor compounds described herein are screened in the following manner. […] Kinases are expressed as either kinase domains or full length constructs fused to glutathione S-transferase (GST) or polyHistidine tagged fusion proteins in either E. colior Baculovirus-High Five expression systems. […]

Sample answers from the record:
CCN(c1ncnc(Nc2cc(OC)c(OC)c(OC)c2)n1)c1cccc2ccccc12 | < 0.927 µM
COc1cc(Nc2ncnc(-c3cccnc3Nc3ccc4c(c3)CCC4)n2)cc(OC)c1OC | 0.85 to 5.1 µM
COc1ccc(Nc2ncnc(N(C)c3ccc(C)cc3)n2)cc1OC | 1.14 to 6.83 µM
COC(=O)c1ccc(-c2cc(Nc3ncnc(Nc4ccc(N5CCOCC5)cc4)n3)[nH]n2)cc1 | > 9.52 µM
COc1cc(Nc2ncnc(-c3cccnc3NC(C)c3cccc4ccccc34)n2)cc(OC)c1OC (centres unmarked) | < 0.787 µM
CC(C)Nc1ncccc1-c1ncnc(Nc2ccc(N3CCOCC3)cc2)n1 | < 1.02 µM
CC(C)Nc1ncccc1-c1ncnc(Nc2cccc(CO)c2)n1 | 1.19 to 7.13 µM

Please turn your attention to the following entry.
In plain terms, Fc1ccc(CNc2ncnc(Nc3cc(-c4ccco4)n[nH]3)n2)cc1 has a documented IC50 of > 12.8 µM

---

biological target: Lck (Homo sapiens, UniProt P06239); construct: Kinases are expressed as either kinase domains or full length constructs; made in house; assay: Kinase inhibition assay (33P transfer), Lck; type: biochemical; settings: read-out: Lck-1
Sequence (P06239 whole entry, species assumed, the tested form may be a part): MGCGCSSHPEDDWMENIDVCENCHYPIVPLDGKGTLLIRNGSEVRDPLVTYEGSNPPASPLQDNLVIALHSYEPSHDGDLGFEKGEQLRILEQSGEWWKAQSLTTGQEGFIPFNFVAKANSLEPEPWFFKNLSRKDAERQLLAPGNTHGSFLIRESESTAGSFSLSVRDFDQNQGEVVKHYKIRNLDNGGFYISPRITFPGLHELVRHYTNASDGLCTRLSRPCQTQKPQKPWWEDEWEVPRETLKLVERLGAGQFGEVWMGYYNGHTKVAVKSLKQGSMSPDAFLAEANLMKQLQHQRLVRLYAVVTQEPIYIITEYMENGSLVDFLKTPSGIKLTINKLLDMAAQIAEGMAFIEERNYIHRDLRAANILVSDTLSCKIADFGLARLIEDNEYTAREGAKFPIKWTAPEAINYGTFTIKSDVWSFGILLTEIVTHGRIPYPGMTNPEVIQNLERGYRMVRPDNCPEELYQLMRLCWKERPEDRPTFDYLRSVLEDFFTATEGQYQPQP
pIC50: −log10 of the molar value.
quantity: pIC50

COc1ccc(Nc2ncnc(NCCCOC(C)C)n2)cc1OC [Compound 785] | < 4.89

In plain terms, CN(c1cccc(Cl)c1)c1ncnc(Cl)n1 [Compound 701] has a documented pIC50 of < 4.75

---

molecular target: AKT (Homo sapiens, UniProt Q9Y243); construct: Kinases are expressed as either kinase domains or full length constructs; made in house; experiment: Kinase inhibition assay (33P transfer), AKT; format: biochemical; details: Table 2, class symbols A-E; read-out: AKT3-1
Listed molecules paired with reported IC50

Sample answers from the record:
FC(F)(F)Oc1cccc(Nc2ncnc(Nc3ccc4c(cnn4Cc4ccccc4)c3)n2)c1 [Compound 907] | > 9.43 µM
Cc1nccc(-c2cccc(Nc3ncnc(Nc4ccc5c(cnn5Cc5ccccc5)c4)n3)c2)n1 [Compound 901] | 0.824 to 4.94 µM
c1ccc(CNc2nc3ccccc3n2-c2ncnc(Nc3cccc(Cn4ccnn4)c3)n2)nc1 [Compound 962] | > 9.46 µM
CCOc1ccc(Nc2ncnc(Nc3cc(-c4ccc(C(=O)OC)cc4)n[nH]3)n2)cc1 [Compound 879] | > 10.4 µM
COc1cc(Nc2ncnc(NC(=O)Cc3ccccc3)n2)cc(OC)c1OC [Compound 679] | > 11.4 µM

Please turn your attention to the following entry.
In plain terms, COc1ccc(Nc2ncnc(NCc3ncc(C(F)(F)F)cc3Cl)n2)cc1OC [Compound 858] has a documented IC50 of > 10.2 µM

---

target: Fyn (Homo sapiens)
Sequence (P06241 whole entry, species assumed): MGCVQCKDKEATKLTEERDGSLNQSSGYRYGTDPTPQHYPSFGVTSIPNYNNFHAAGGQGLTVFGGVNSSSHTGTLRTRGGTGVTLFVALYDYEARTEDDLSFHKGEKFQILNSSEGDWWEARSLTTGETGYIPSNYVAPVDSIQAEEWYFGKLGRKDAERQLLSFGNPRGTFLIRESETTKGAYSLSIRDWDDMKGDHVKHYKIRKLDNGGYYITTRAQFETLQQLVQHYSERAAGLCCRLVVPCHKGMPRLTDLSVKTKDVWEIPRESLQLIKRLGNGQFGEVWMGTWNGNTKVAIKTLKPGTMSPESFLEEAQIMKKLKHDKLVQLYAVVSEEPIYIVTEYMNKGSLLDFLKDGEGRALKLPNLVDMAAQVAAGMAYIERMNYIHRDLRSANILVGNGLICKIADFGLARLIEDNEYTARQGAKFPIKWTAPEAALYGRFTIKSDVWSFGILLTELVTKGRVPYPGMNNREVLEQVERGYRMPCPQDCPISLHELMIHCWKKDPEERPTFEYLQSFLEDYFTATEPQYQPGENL
pIC50: −log10 of the molar value.
quantity: pIC50

Sample answers from the record:
COc1cc(Nc2ncnc(Nc3ccc(O)cc3)n2)cc(OC)c1OC | > 5.97
COc1cc(Nc2ncnc(Nc3ccc(Cl)c4ccccc34)n2)cc(OC)c1OC | < 4.99
COc1cc(Nc2ncnc(Nc3nnc(-c4ccccc4)[nH]3)n2)cc(OC)c1OC | < 4.97
COc1cc(Nc2ncnc(-n3cc(CCO)c4ccccc43)n2)cc(OC)c1OC | > 6.02
COCCOc1cc(Nc2ncnc(Nc3ccc(C)c(O)c3)n2)ccc1OC | > 6.00

Please turn your attention to the following entry.
In plain terms, C#Cc1cccc(Nc2ncnc(Nc3cc(OC)c(OC)c(OC)c3)n2)c1 has a documented pIC50 of < 4.92
